Reported values of 8OG:A repair function score for individual entries
B1: library; numbered along this chain (parent)
chain: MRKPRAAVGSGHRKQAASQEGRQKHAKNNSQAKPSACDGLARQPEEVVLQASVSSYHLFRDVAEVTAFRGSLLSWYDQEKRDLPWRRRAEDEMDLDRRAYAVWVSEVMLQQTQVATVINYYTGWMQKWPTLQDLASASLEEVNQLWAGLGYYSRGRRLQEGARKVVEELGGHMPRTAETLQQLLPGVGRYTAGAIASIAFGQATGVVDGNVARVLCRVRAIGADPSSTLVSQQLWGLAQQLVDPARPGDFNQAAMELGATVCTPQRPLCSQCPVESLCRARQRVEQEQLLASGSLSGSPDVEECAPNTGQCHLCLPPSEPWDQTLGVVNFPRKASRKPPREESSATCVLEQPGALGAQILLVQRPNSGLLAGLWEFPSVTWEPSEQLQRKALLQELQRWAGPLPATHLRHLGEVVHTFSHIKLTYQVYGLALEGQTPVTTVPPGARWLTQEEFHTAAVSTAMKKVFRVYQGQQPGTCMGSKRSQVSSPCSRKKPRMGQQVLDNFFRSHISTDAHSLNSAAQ

variants of: B1; experiment: 8OG:A repair function score (normalized; synonymous = 0, nonsense = -1) (normalized log-likelihood score); higher = more repair activity (WT-like); conditions: with 8OG:A DNA repair reporter (GFP) in HEK-293 MUTYH KO cells;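 further: cells sorted at 72 h after reporter transfection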
experimentalReadout: 8OG:A repair function score

changes	reportedMeasurement
E395I	-0.133
A513M	-0.0173
T460K	-0.0077
S52Q	-0.0208
L58D	-0.00786
R157A	-0.14
D133C	-0.201
G401L	-0.214
Q499G	-0.0117
V438M	-0.252
G201L	-0.298
K464Q	-0.245
L49I	-0.0224
P34N	0.0767
L430V	-0.165
L501R	0.00197
V500D	-0.00453
L373G	-0.502
E92G	-0.183
G401E	0.191
E256R	-0.814
R60L	0.00645
L349S	-0.842

The origin of these recorded values is the supplement of paper PMC11908140.
